- System: P388 leukemia ip, CD2F1 mice, survival T/C
- EXPERIMENTAL_DETAILS: NCI In Vivo Anticancer Drug Screen. Data for tumor model P388 Leukemia (intraperitoneal) in CD2F1 (CDF1) mice
- CONDITION_SET: endpoint: median survival time; dose: 100.0 mg/kg/injection; schedule: Q01DX009 (ip); vehicle: suspension in saline; higher = longer survival
Inconclusive results and toxic doses are left out.
ENDPOINT_LABEL: T/C

Give T/C; test system P388 leukemia ip, CD2F1 mice, survival T/C; compound COC1CCC(CO)O1 (stereo unspecified)
108 % of control

Give T/C; test system P388 leukemia ip, CD2F1 mice, survival T/C; compound "O=c1[nH]c(=O)n(C(c2ccccc2)c2ccccc2)cc1F"
94 % of control

Give T/C; test system P388 leukemia ip, CD2F1 mice, survival T/C; compound "O=[N+]([O-])c1ccc(/C=C(/c2ccc([N+](=O)[O-])o2)S(=O)(=O)C(Cl)(Cl)Cl)cc1"
86 % of control

Give T/C; test system P388 leukemia ip, CD2F1 mice, survival T/C; compound CCC(C)(Oc1ccc(Cc2ccc(Cl)cc2)cc1)C(=O)OCc1cccnc1 (stereo unspecified)
95 % of control

Give T/C; test system P388 leukemia ip, CD2F1 mice, survival T/C; compound "O=[N+]([O-])c1ccc(/C=C(/c2ccc([N+](=O)[O-])o2)S(=O)(=O)c2ccccc2)o1"
100 % of control

Give T/C; test system P388 leukemia ip, CD2F1 mice, survival T/C; compound "Cc1c(C)c2ccc(OCCCN3CCN(Cc4ccc(Cl)cc4)CC3)cc2oc1=O"
91 % of control
